# Test system: Panc02.13 cells expressing vector only (02.13-WT)
# procedureDetails: Kinetic cell growth assay, Panc02.13 cells expressing vector only
# Assay type: cell-based, human
# testSettings: Homo sapiens, low density, read-out: Low density (EC50, nM) 02.13-WT
Measured EC50 accompanies every entry in the list below.

[
  {
    "molecule": "CC[C@@]1(O)C(=O)OCc2c1cc1n(c2=O)Cc2cc3ccccc3nc2-1 [Camtothecin, Camptothecin]",
    "EC50 [nM]": 5.2
  },
  {
    "molecule": "O=c1[nH]cc(F)c(=O)[nH]1 [5-FU, 5-fluorouracil]",
    "EC50 [nM]": 350
  },
  {
    "molecule": "CC(=O)O[C@@]12CO[C@@H]1C[C@H](O)[C@@]1(C)C(=O)[C@H](O)C3=C(C)[C@@H](OC(=O)[C@H](O)[C@@H](NC(=O)OC(C)(C)C)c4ccccc4)C[C@@](O)([C@@H](OC(=O)c4ccccc4)[C@H]21)C3(C)C [Docetaxel]",
    "EC50 [nM]": 3.5
  },
  {
    "molecule": "COc1cc([C@@H]2c3cc4c(cc3[C@@H](O[C@@H]3O[C@@H]5CO[C@@H](C)O[C@H]5[C@H](O)[C@H]3O)[C@H]3COC(=O)[C@H]23)OCO4)cc(OC)c1O [Etoposide]",
    "EC50 [nM]": 386
  }
]

All figures here come from patent US20200216906A1.
